- target.desc: Constitutive NO synthase (Rattus norvegicus)
- Construct: The basal tone of the tissue is used as an indication of the activity of the constitutive NO synthase
- method: Constitutive NO synthase inhibition (method of Rees et al, Br. J. Pharmacol. 1990; rat aortic rings in vitro, basal tone)
pEC50: −log10 of the molar value.
value.kind: pEC50

Consider the worked cases shown below.
# pEC50 lookup, item CC(=N)NCCCC[C@H](N)C(=O)O.Cl [Example 2, hydrochloride] 5.16

Let us now turn to CC(=N)NCCSC[C@@H](N)C(=O)O.Cl [Example 4, hydrochloride] 5.37

[I] CC(=N)NC/C=C/CC(N)C(=O)O.Cl (racemic) [Example 3, hydrochloride]
[II] CC(=N)NCCC[C@H](N)C(=O)O.Cl [Example 1, hydrochloride]
Hey, between I and II which has a smaller measured pEC50? In your reply, give the label of the chosen option. II
(II: 5.29, I: 5.51)

---

- target.desc: Inducible NO synthase (Rattus norvegicus)
- Construct: activity of the inducible enzyme in the vascular smooth muscle cells; from tissue; host or cells: rat aortic rings, LPS-induced (vascular smooth muscle)
- method: Inducible NO synthase inhibition (method essentially according to Rees et al, Biochem. Biophys. Res. Comm. 1990; rat aortic rings, LPS-induced loss of tone)
- Type: cell-based
value.kind: EC50 (µM)
Give the value in µM but do not write µM after it.

# EC50 lookup, item CC(=N)NCCCC[C@H](N)C(=O)O.Cl [Example 2, hydrochloride] 0.16

---

- target.desc: Inducible NO synthase (Rattus norvegicus, UniProt Q06518)
- Construct: activity of the inducible enzyme in the vascular smooth muscle cells; from tissue; host or cells: rat aortic rings, LPS-induced (vascular smooth muscle)
- method: Inducible NO synthase inhibition (method essentially according to Rees et al, Biochem. Biophys. Res. Comm. 1990; rat aortic rings, LPS-induced loss of tone)
- Assay type: cell-based
- measurement.parameters: constitutive EC50 / inducible EC50
value.kind: EC50 ratio

# EC50 ratio lookup, item CC(=N)NCCC[C@H](N)C(=O)O.Cl [Example 1] 36.4

Let us now turn to CC(=N)NCCCC[C@H](N)C(=O)O.Cl [Example 2] 43.1

[1] CC(=N)NCCSC[C@@H](N)C(=O)O.Cl [Example 4]
[2] CC(=N)NC/C=C/CC(N)C(=O)O.Cl (racemic) [Example 3]
Hey, between 1 and 2 which has a smaller measured EC50 ratio? In your reply, give the label of the chosen option. 2
(2: 9.7, 1: 33.4)
